Each entry below lists one item and its recorded protein stability index value.
B1: TRIM43 (parent)
chain: YQEIFQQLQRSWVKMDQKSKHLKE

- Variants of: B1
- Assay text: protein stability index of a GFP-peptide fusion (GPS, HEK-293T) (PSI 1-6); higher = more stable;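 note: lentivirally expressed fusions sorted by FACS into six bins by GFP to DsRed ratio, PSI derived from sequencing read proportions per bin multiplied by bin number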
- Measurement conditions: c terminus: a fixed tail appended

{"columns": ["Mutant name", "Obs value"],
 "data": [
  ["Q7K", 1.61],
  ["Q7I", 2.08],
  ["H21R", 2.53],
  ["S19L", 3.31],
  ["Q7M", 2.13]
]}

Query `F5R` yields protein stability index of 3.15
